# assay_summary: Caco-2 cell membrane permeability assay
# study_conditions: human, Caco-2
Structures can show the parent of a compound that is named as a salt.
readout_name: Papp A→B at 180 min, 100 μg/mL

stdin: Recorded Papp A→B at 180 min, 100 μg/mL of CC[C@@]1(O)C(=O)OCc2c1cc1n(c2=O)Cc2c-1nc1cc(F)c(C)c3c1c2[C@@H](N)CC3 [Compound B, Exatecan, reference compound] , please.
stdout: 68.6 ×10⁻⁶ cm/s

stdin: Recorded Papp A→B at 180 min, 100 μg/mL of CC[C@@]1(O)C(=O)OCc2c1cc1n(c2=O)Cc2c-1nc1cc(F)c(C)c3c1c2[C@@H](NC(=O)CO)CC3 [Dxd, reference compound] , please.
stdout: 42 ×10⁻⁶ cm/s

stdin: Recorded Papp A→B at 180 min, 100 μg/mL of COCCc1ccc(OCC(O)CNC(C)C)cc1 (stereo not drawn) [Metoprolol Tartrate] , please.
stdout: 193 ×10⁻⁶ cm/s

* * *

# System: MDA-MB-231 cells (human breast cancer cells)
# assay_summary: MDA-MB-231 cell proliferation inhibitory assay (CellTiter-Glo)
# Type: cell-based
# study_conditions: Homo sapiens, MDA-MB-231, 72 h, read-out: Proliferation inhibition IC50
# Description: • 1). […] Resuspend an appropriate amount of cell suspension to 3000 cells/100 μL according to the count, mixed well and then put the corresponding number of cells into a 96-well plate by pipette. • 3). […] Day 1 detected: Take out an appropriate amount of CTG 1 h in advance and the plate was allowed to equilibrate at room temperature for 30 min. 100 μL of CTG was added to each well and shaken for 5 mins, and then standed in the dark for 5 mins, the luminescence value was detected by ELISA. • 6). […]
readout_name: IC50 (nM)
Number in nM, nothing else.

stdin: Given the entry CC[C@H](N)c1c2c(nc3ccccc13)-c1cc3c(c(=O)n1C2)COC(=O)[C@]3(O)CC [Example 9] , what IC50 was observed with MDA-MB-231 cells (human breast cancer cells)?
stdout: 310

stdin: Given the entry CC[C@@]1(O)C(=O)OCc2c1cc1n(c2=O)Cc2c-1nc1cc(F)c(C)c(C)c1c2[C@@H](C)N [Example 29b] , what IC50 was observed with MDA-MB-231 cells (human breast cancer cells)?
stdout: 6.6

stdin: Given the entry CC[C@@]1(O)C(=O)OCc2c1cc1n(c2=O)Cc2c-1nc1cc(F)c(C)cc1c2C1CNC1 [Example 37] , what IC50 was observed with MDA-MB-231 cells (human breast cancer cells)?
stdout: 90.8

stdin: Given the entry CC[C@@]1(O)C(=O)OCc2c1cc1n(c2=O)Cc2c-1nc1cc3c(cc1c2[C@H](C)N)OCO3 [Example 35a] , what IC50 was observed with MDA-MB-231 cells (human breast cancer cells)?
stdout: 20.6

* * *

# System: MDA-MB-435s cells (human melanoma cells)
# assay_summary: MDA-MB-435s cell proliferation inhibitory assay (CellTiter-Glo)
# Format: cell-based
# study_conditions: Homo sapiens, MDA-MB-435S, 72 h, read-out: Proliferation inhibition IC50
# Method: • 1). […] Resuspend an appropriate amount of cell suspension to 3000 cells/100 μL according to the count, mixed well and then put the corresponding number of cells into a 96-well plate by pipette. • 3). […] Day 1 detected: Take out an appropriate amount of CTG 1 h in advance and the plate was allowed to equilibrate at room temperature for 30 min. 100 μL of CTG was added to each well and shaken for 5 mins, and then standed in the dark for 5 mins, the luminescence value was detected by ELISA. • 6). […]
One threshold, 2 nM, splits the recorded IC50 values: lower ones are met, equal or higher ones are not met.

stdin: Please state whether IC50 is below 2 nM for CC[C@@]1(O)C(=O)OCc2c1cc1n(c2=O)Cc2c-1nc1cc(F)c(OC)cc1c2[C@H](C)O [Example 30c]
stdout: not met

stdin: Please state whether IC50 is below 2 nM for CC[C@@]1(O)C(=O)OCc2c1cc1n(c2=O)Cc2c-1nc1cc(F)c(C)cc1c2[C@H](C)NC(=O)C1CCCCC1O (stereo partly shown) [Example 26]
stdout: not met

stdin: Please state whether IC50 is below 2 nM for CC[C@@]1(O)C(=O)OCc2c1cc1n(c2=O)Cc2c-1nc1cc(F)c(C)cc1c2[C@@H](C)N1CCNCC1 [Example 41b]
stdout: not met

stdin: Please state whether IC50 is below 2 nM for CC[C@@]1(O)C(=O)OCc2c1cc1n(c2=O)Cc2c-1nc1cc(F)c(OC)cc1c2[C@@H](C)N [Example 30b]
stdout: met

stdin: Please state whether IC50 is below 2 nM for CC[C@@]1(O)C(=O)OCc2c1cc1n(c2=O)Cc2c-1nc1cc(F)c(C)cc1c2[C@H](N)CO [Example 39b]
stdout: met

stdin: Please state whether IC50 is below 2 nM for CC[C@@]1(O)C(=O)OCc2c1cc1n(c2=O)Cc2c-1nc1ccc(O)cc1c2[C@H](C)O [Example 12-1]
stdout: not met

stdin: Please state whether IC50 is below 2 nM for CC[C@@]1(O)C(=O)OCc2c1cc1n(c2=O)Cc2c-1nc1ccc(OC)cc1c2[C@@H](C)O [Example 31d]
stdout: not met

* * *

# System: MDA-MB-435s cells (human melanoma cells)
# assay_summary: MDA-MB-435s cell proliferation inhibitory assay (CellTiter-Glo)
# Format: cell-based
# study_conditions: Homo sapiens, MDA-MB-435S, 72 h, read-out: Proliferation inhibition IC50
One threshold, 3 nM, splits the recorded IC50 values: lower ones are 1 (yes), equal or higher ones are 0 (no).

stdin: Please state whether IC50 is below 3 nM for CC[C@@]1(O)C(=O)OCc2c1cc1n(c2=O)Cc2c-1nc1cc(F)c(C)cc1c2[C@H](C)N1CCNCC1 [Example 41a]
stdout: 0 (no)

stdin: Please state whether IC50 is below 3 nM for CC[C@@]1(O)C(=O)OCc2c1cc1n(c2=O)Cc2c-1nc1cc(F)c(C)cc1c2[C@H]1CCN1 [Example 38b]
stdout: 1 (yes)

stdin: Please state whether IC50 is below 3 nM for CC[C@@]1(O)C(=O)OCc2c1cc1n(c2=O)Cc2c-1nc1cc(F)c(C)cc1c2[C@H](C)[N+](C)(C)C
stdout: 0 (no)

stdin: Please state whether IC50 is below 3 nM for [2H]C([2H])(O)C(=O)N[C@@H](C)c1c2c(nc3cc(F)c(C)cc13)-c1cc3c(c(=O)n1C2)COC(=O)[C@]3(O)CC
stdout: 1 (yes)

stdin: Please state whether IC50 is below 3 nM for CC[C@@]1(O)C(=O)OCc2c1cc1n(c2=O)Cc2c-1nc1ccc(OC)cc1c2[C@H](C)N [Example 31a]
stdout: 0 (no)

stdin: Please state whether IC50 is below 3 nM for CC[C@@]1(O)C(=O)OCc2c1cc1n(c2=O)Cc2c-1nc1cc(F)c(C)cc1c2[C@H](C)NC(=O)[C@@H](O)C(F)(F)F
stdout: 0 (no)

stdin: Please state whether IC50 is below 3 nM for CC[C@@]1(O)C(=O)OCc2c1cc1n(c2=O)Cc2c-1nc1cc(F)c(F)cc1c2[C@H](C)N [Example 33a]
stdout: 1 (yes)

stdin: Please state whether IC50 is below 3 nM for CC[C@@]1(O)C(=O)OCc2c1cc1n(c2=O)Cc2c-1nc1cc(F)c(C)cc1c2[C@@H](C)N1CCN(C)CC1 [Example 42b]
stdout: 1 (yes)

stdin: Please state whether IC50 is below 3 nM for CC[C@@]1(O)C(=O)OCc2c1cc1n(c2=O)Cc2c-1nc1cc(F)c(C)cc1c2[C@H](C)NCCNC [Example 25c]
stdout: 0 (no)

stdin: Please state whether IC50 is below 3 nM for CC[C@@]1(O)C(=O)OCc2c1cc1n(c2=O)Cc2c-1nc1cc(F)c(C)cc1c2[C@@H](C)NC(=O)CO [Example 13b]
stdout: 0 (no)

stdin: Please state whether IC50 is below 3 nM for CC[C@@]1(O)C(=O)OCc2c1cc1n(c2=O)Cc2c-1nc1cc(F)c(OC)cc1c2[C@@H](C)O [Example 30d]
stdout: 1 (yes)

stdin: Please state whether IC50 is below 3 nM for CC[C@@H](N)c1c2c(nc3ccccc13)-c1cc3c(c(=O)n1C2)COC(=O)[C@]3(O)CC
stdout: 0 (no)

stdin: Please state whether IC50 is below 3 nM for CC[C@@]1(O)C(=O)OCc2c1cc1n(c2=O)Cc2c-1nc1cc3c(cc1c2[C@H](C)N)OCCO3 [Example 36a]
stdout: 0 (no)

stdin: Please state whether IC50 is below 3 nM for CC[C@@]1(O)C(=O)OCc2c1cc1n(c2=O)Cc2c-1nc1ccc(O)cc1c2[C@@H](C)N
stdout: 0 (no)

stdin: Please state whether IC50 is below 3 nM for CC[C@@]1(O)C(=O)OCc2c1cc1n(c2=O)Cc2c-1nc1cc(F)c(C)cc1c2[C@H](C)NC
stdout: 1 (yes)

stdin: Please state whether IC50 is below 3 nM for CC[C@H](N)c1c2c(nc3ccccc13)-c1cc3c(c(=O)n1C2)COC(=O)[C@]3(O)CC
stdout: 0 (no)
